System: LNCaP cells
procedureDetails: Inhibition of LNCaP cell proliferation (WST-8)
Type: cell-based
statedConditions: Homo sapiens, LNCaP FGC cells, 96 hours
Classify: true (1) when IC50 is strictly less than 3 µM; false (0) when IC50 is not.

Illustrative cases are given below, each with its answer.
{"columns": ["compound", "labelValue"],
 "data": [
  ["COc1cc(O[C@H]2C(C)(C)[C@H](NC(=O)c3ccc(N4CCC(F)(CN5CC6(CCC7(CC6)COc6c7ccc7c6CN(C6CCC(=O)NC6=O)C7=O)C5)CC4)cc3)C2(C)C)ccc1C#N (relative stereo)", "true (1)"],
  ["COc1cc(O[C@H]2C(C)(C)[C@H](NC(=O)c3ccc(N4CCC5(CC4)CC(N4CCC6(CC4)COc4cc7c(cc46)n(C)c(=O)n7C4CCC(=O)NC4=O)C5)cc3)C2(C)C)ccc1C#N (relative stereo)", "false (0)"]
]}

A record lists "COc1cc(O[C@H]2C(C)(C)[C@H](NC(=O)c3ccc(N4CCC(C)(CN5CCC6(CC5)COc5c6ccc(C(=O)N[C@H]6CCC(=O)NC6=O)c5F)CC4)cc3)C2(C)C)ccc1C#N" . Is its IC50 below 3 µM?
true (1)

A record lists Cn1c(=O)n(C2CCC(=O)NC2=O)c2ccc3c(c21)OCC31CCN(C2CC3(CCN(c4ccc(C(=O)N[C@H]5CC[C@H](Oc6ccc(C#N)c(Cl)c6)CC5)nn4)CC3)C2)CC1 (stereo partly drawn) . Is its IC50 below 3 µM?
false (0)

A record lists "CC1(C)[C@H](NC(=O)c2ccc(N3CCC(CN4CCN5c6ccc(C(=O)N[C@H]7CCC(=O)NC7=O)cc6OC[C@H]5C4)CC3)cc2)C(C)(C)[C@H]1Oc1ccc(C#N)c(Cl)c1" . Is its IC50 below 3 µM?
true (1)

A record lists "COc1cc(O[C@H]2C(C)(C)[C@H](NC(=O)c3ccc(N4CCC(CN5CCN6c7ccc(N[C@H]8CCC(=O)NC8=O)cc7OC[C@@H]6C5)CC4)cc3)C2(C)C)ccc1C#N" . Is its IC50 below 3 µM?
true (1)

A record lists COc1cc(O[C@H]2C(C)(C)[C@H](NC(=O)c3ccc(N4CCC(N5CC6(CCC7(CC6)COc6c7ccc7c6CN(C6CCC(=O)NC6=O)C7=O)C5)CC4)cc3)C2(C)C)ccc1C#N (stereo partly drawn) . Is its IC50 below 3 µM?
true (1)

A record lists "COc1cc2c(cc1C(=O)N[C@H]1CCC(=O)NC1=O)C1(CCN(CC3CCN(C(=O)c4ccc(N5CCC6(CC5)C[C@H](C)N(c5ccc(C#N)c(Cl)c5)C6)cc4)CC3)CC1)CO2" . Is its IC50 below 3 µM?
false (0)

A record lists COc1cc(O[C@H]2CC[C@H](NC(=O)c3ccc(N4CCC(N5CCC6(CC5)COc5cc7c(cc56)n(C)c(=O)n7C5CCC(=O)NC5=O)CC4)nn3)CC2)ccc1C#N (stereo partly drawn) . Is its IC50 below 3 µM?
false (0)

----------
assayedSystem: ERα (Homo sapiens, UniProt P03372)
Sequence (P03372 1-595): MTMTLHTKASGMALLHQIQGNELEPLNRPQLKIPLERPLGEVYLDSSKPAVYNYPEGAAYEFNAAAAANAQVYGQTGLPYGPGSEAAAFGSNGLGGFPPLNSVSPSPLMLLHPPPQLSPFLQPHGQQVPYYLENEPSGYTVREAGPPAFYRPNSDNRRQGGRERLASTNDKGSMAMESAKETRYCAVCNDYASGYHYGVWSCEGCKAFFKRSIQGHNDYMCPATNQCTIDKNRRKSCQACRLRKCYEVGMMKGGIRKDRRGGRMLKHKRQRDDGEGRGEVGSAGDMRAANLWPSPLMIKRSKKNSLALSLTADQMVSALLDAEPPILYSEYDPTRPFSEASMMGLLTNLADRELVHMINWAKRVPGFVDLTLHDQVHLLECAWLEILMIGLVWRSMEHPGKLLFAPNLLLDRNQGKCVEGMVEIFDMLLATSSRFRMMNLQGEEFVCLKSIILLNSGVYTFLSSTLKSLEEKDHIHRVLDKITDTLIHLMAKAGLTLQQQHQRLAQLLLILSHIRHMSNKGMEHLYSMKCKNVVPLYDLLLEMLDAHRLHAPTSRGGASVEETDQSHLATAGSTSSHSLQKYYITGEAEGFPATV
procedureDetails: ERα degradation in T-47D cells (Western blot)
Format: cell-based
statedConditions: 10nM, 4 hours
Reported Degradation rate of ERα in T-47D cells (%) is given for each of the following compounds.
Your answer is read as %, so omit the unit and give the number.

Worked examples follow.
{"columns": ["compound", "reportedValue"],
 "data": [
  ["O=C1CC[C@H](NC(=O)c2ccc3c(c2F)OCC32CCN(C3CC4(CCN(c5ccc([C@@H]6c7ccc(O)cc7CC[C@@H]6c6ccccc6)cc5)CC4)C3)CC2)C(=O)N1", 4],
  ["O=C1CCC(Nc2ccc3c(c2)COC[C@H]2CN(CC4CCC(OC5CCN(c6ccc([C@@H]7c8ccc(O)cc8CC[C@@H]7c7ccccc7)cc6)CC5)CC4)CCN32)C(=O)N1 (single isomer, unassigned) [ER-P-50]", 18],
  ["C[C@@H]1Cc2cc(O)ccc2C(c2c(F)cc(N3CCC4(CCC(N5CC6(CCC7(CC6)COc6c7ccc7c6CN(C6CCC(=O)NC6=O)C7=O)C5)CC4)CC3)cc2F)N1CC(F)F (some centres unmarked)", 65],
  ["Cn1c(=O)n(C2CCC(=O)NC2=O)c2cc3c(cc21)C1(CCN(CC2CCN(c4ccc([C@@H]5c6ccc(O)cc6CC[C@@H]5c5ccccc5)cc4)CC2)CC1)CO3 (some centres unmarked)", -49]
]}

Consider the record given below.
Note to self: Degradation rate of ERα in T-47D cells (%) recorded for Cn1c(=O)n(C2CCC(=O)NC2=O)c2cc3c(cc21)C1(CCN(C2CCN(c4ccc([C@@H]5c6ccc(O)cc6CC[C@@H]5c5ccccc5)cc4)CC2)CC1)CO3 (some centres unmarked) was 12
